- System: wild oat
- protocol-description: Test B pre/postemergence wild oat
- Type: in vivo, Avena fatua
- measurement-conditions: Preemergence, Rate 500 g/ha; scale 0 to 10 (0 no effect, 10 complete control)

molecule: CC(C)N(Cc1ccccc1)C(=O)n1oc(=O)n(C(C)C)c1=O
Wild oats plant response rating: 6
//
molecule: COc1ccccc1Cn1c(=O)on(C(=O)N(c2ccccc2)C(C)C)c1=O
Wild oats plant response rating: 7
//
molecule: CC1CCCCC1n1c(=O)on(C(=O)N(c2ccccc2)C(C)C)c1=O (stereo not shown)
Wild oats plant response rating: 5
//
molecule: CC(C)N(C(=O)n1oc(=O)n([C@@H](C)c2ccccc2)c1=O)c1ccc(Cl)cc1
Wild oats plant response rating: 0

The values you see were collected from patent US6737383B1.
